Biological target: CDK4 (Homo sapiens (Human))
Sequence (P11802 2-303): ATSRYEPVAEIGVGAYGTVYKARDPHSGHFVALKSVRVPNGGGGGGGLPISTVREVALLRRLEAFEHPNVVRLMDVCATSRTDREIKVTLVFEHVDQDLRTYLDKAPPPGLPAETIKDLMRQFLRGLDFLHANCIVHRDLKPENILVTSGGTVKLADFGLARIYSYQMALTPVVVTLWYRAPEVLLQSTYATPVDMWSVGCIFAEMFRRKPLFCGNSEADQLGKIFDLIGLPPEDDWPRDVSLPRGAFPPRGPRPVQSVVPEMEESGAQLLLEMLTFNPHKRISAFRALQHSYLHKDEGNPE
Sequence (P24385 whole entry partner): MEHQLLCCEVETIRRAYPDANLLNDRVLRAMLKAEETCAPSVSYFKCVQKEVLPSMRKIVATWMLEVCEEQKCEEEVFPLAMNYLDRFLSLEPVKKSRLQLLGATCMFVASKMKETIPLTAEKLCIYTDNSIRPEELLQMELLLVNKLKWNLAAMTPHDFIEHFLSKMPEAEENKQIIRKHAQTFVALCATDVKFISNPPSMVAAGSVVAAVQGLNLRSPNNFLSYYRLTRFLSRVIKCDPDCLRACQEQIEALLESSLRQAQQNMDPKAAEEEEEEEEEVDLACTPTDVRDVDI
Test: Phospho-Serine 795 Rb ELISA assay in JEKO-1 cells
Format: cell-based
Conditions: overnight treatment, phospho-Rb S795, read-out: CDK4 pRB S795 ELISA JEKO-1 cells IC50
pIC50: −log10 of the molar value.

{"columns": ["molecule", "pIC50"],
 "data": [
  ["Cc1nc2c(F)cc(-c3nc(N[C@@H]4CCN(S(C)(=O)=O)C[C@H]4O)ncc3F)cc2n1C1CNC1 [Example A88]", 5.14],
  ["C[C@H](O)c1nc2c(F)cc(-c3nc(N[C@@H]4CCOC[C@H]4O)ncc3Cl)cc2n1C(C)(C)C [Example A61]", 7.94],
  ["Cc1nc2ccc(-c3cc(N[C@@H]4CCOC[C@H]4O)ncc3Cl)nc2n1C(C)C [Example D05]", 7.07],
  ["Cc1nc2c(F)cc(-c3nc(N[C@@H]4CCN(S(C)(=O)=O)C[C@H]4O)ncc3F)cc2n1C(C)C [Example A02]", 7.05],
  ["CC(C)c1c2cc(-c3nc(N[C@@H]4CCN(S(C)(=O)=O)C[C@H]4O)ncc3Cl)ccc2nn1C [Example A28]", 7.00],
  ["COC(=O)N1CC[C@@H](Nc2ncc(F)c(-c3cc(F)c4nc(C)n(C(C)C)c4c3)n2)[C@H](O)C1 [Example F01]", 6.94],
  ["CC(C)n1c(C(C)(O)C2CC2)nc2c(F)cc(-c3nc(N[C@@H]4CCOC[C@H]4O)ncc3Cl)cc21 (single isomer, unassigned) [Example A24]", 7.40]
]}
